Consider the following molecules; for each one, report its Inhibition.
tested on: Candida albicans; conditions: Concentration 32 ug.mL-1; ASSAY_TEST Inhibition of Fungal Growth; detection method Absorption (OD530)
Description: Antifungal activity against Candida albicans ATCC 90028 (CO-ADD:FG_001); MIC in YNB media using NBS plates, by OD630
Results with a measured potency or affinity are listed apart.
Quick note: give the figure in %, leave out the unit.

-- ask Candida albicans / Inhibition / O=C(Cn1nc2c(N3CCOCC3)nc3ccccc3n2c1=O)NCc1ccccc1Cl : value?
-- reply 6.61

-- ask Same question, Cc1ccc(-c2cc3c4nn(CC(=O)Nc5ccc6c(c5)OCO6)c(=O)n4ccn3n2)cc1C this time
-- reply 33.95

-- ask And what about the molecule COc1ccc(N(Cc2cccc(Cl)c2)S(=O)(=O)c2ccc3nnc(C)n3c2)cc1 ?
-- reply 5

-- ask // query: COc1ccc(CNC(=O)Cn2nc3c(N4CC(C)CC(C)C4)nccn3c2=O)cc1 (stereo unspecified)
-- reply 4.41

-- ask Next up: CC(C)c1nnc2c(SCC(=O)Nc3ccccc3Br)nc3ccccc3n12
-- reply 4.2

-- ask Further, for CCC(Sc1nnc2c(=O)n(-c3ccccc3)ccn12)C(=O)Nc1cc(F)ccc1F (stereo unspecified) ?
-- reply 0.38

-- ask What about this molecule? COc1ccc(NC(=O)Cn2nc3ccc(-c4ccc(Cl)cc4)nn3c2=O)cc1
-- reply 0.32

-- ask And for Cc1cccc(NC(=O)Cn2nc3c(SC4CCCCC4)nccn3c2=O)c1C ?
-- reply -1.44

-- ask Please give the result for Cc1cccc(NC(=O)Cn2c(=O)c3nnc(C(C)C)n3c3ccccc32)c1 too.
-- reply 0.3

-- ask Now consider Cc1nnc2ccc(S(=O)(=O)N(Cc3ccccc3)c3cccc(F)c3)cn12 and answer again.
-- reply 2.53

-- ask Moving on to the next molecule: O=c1c2nnc(SCc3cccc(C(F)(F)F)c3)n2ccn1-c1ccc(Br)cc1
-- reply 27.57

-- ask Now consider COc1cccc(CN(c2ccc(F)cc2)S(=O)(=O)c2cccn3cnnc23)c1 .
-- reply -0.06

-- ask Continue with Cc1cc(NC(=O)Cn2c(=O)c3nnc(C(C)C)n3c3ccccc32)ccc1Br
-- reply 3.1

-- ask Also, Cc1ccc(NC(=O)Cn2nc3ccc(SC4CCCCC4)nn3c2=O)c(Cl)c1 please.
-- reply 5.14

-- ask And for COc1cccc(-n2ccn3c(SCC(=O)Nc4cccc(F)c4)nnc3c2=O)c1 ?
-- reply 10.45

-- ask Next record, please: COc1ccc(-c2cc3c4nnc(SCC(=O)N(C)c5ccccc5)n4ccn3n2)cc1
-- reply 32.67

-- ask Then what about the molecule Cc1ccc(C)c(Cn2nc3n(CC(C)C)c(=O)c4sccc4n3c2=O)c1 ?
-- reply -1.65

-- ask // same read-out, input: O=c1n(Cc2ccccc2F)nc2ccc(S(=O)(=O)N3CCCCCC3)cn12
-- reply 0.84

-- ask Same read-out for Cc1ccc(N(Cc2ccccc2)S(=O)(=O)c2ccc3nncn3c2)cc1F ?
-- reply 0.48

-- ask Also, O=C(CSc1nnc2c(=O)n(-c3ccccc3)ccn12)Nc1ccc(Cl)cc1 please.
-- reply 0.98

-- ask Try COc1ccccc1-n1ccn2c(SCc3cccc(F)c3)nnc2c1=O next.
-- reply 2.05
